Can you tell me phenotypically active for the items I'm about to list?
System: A549-CANX-COX4
EXPERIMENT: phenotypically active (imaging signature differs from DMSO and reproducible) at any of 0.3-9 uM (binary (1 = active, 0 = inactive)); higher = active
CONDITION_SUMMARY: treatment time: 24 h
Where a name gives a salt, the structure may show the parent alone.

Incoming: // returns reported phenotypically active for input CC(=O)Nc1ccc(NC(=S)NC(=O)c2ccc(C(C)(C)C)cc2)cc1
Outgoing: 0 (inactive)

Incoming: // returns reported phenotypically active for input Cc1ccc([N+](=O)[O-])cc1S(=O)(=O)N(C)C
Outgoing: 0 (inactive)

Incoming: // returns reported phenotypically active for input COc1ccc(N(C)c2nc(C)nc3ccccc23)cc1 [MPC 6827 hydrochloride]
Outgoing: 1 (active)

###

Can you tell me phenotypically active for the items I'm about to list?
Tested on: A549-ACTB-RAB5A
EXPERIMENT: phenotypically active (imaging signature differs from DMSO and reproducible) at any of 0.3-9 uM (binary (1 = active, 0 = inactive)); higher = active
CONDITION_SUMMARY: treatment time: 24 h
Structures can show the parent of a compound that is named as a salt.
Please respond with just the number, no unit label.

Incoming: // returns reported phenotypically active for input CCN(CCO)CCCOc1ccc2c(Nc3cc(CC(=O)Nc4cccc(F)c4)n[nH]3)ncnc2c1 [barasertib-HQPA]
Outgoing: 1

Incoming: // returns reported phenotypically active for input CCCc1nc(C(C)(C)O)c(C(=O)OCc2oc(=O)oc2C)n1Cc1ccc(-c2ccccc2-c2nnn[nH]2)cc1 [olmesartan-medoxomil]
Outgoing: 0

Incoming: // returns reported phenotypically active for input Nc1nc(Cl)nc2c1ncn2[C@@H]1O[C@H](CO)[C@@H](O)[C@@H]1F [clofarabine]
Outgoing: 1

Incoming: // returns reported phenotypically active for input C=C1C(=O)O[C@@H]2C=C(C)CCC=C(C)CC[C@@H]12 [Costunolide]
Outgoing: 1

Incoming: // returns reported phenotypically active for input CCCCc1nc(Cl)c(CO)n1Cc1ccc(-c2ccccc2-c2nnn[nH]2)cc1 [losartan]
Outgoing: 0

Incoming: // returns reported phenotypically active for input NS(=O)(=O)c1cc2c(cc1Cl)N=C(CSCc1ccccc1)NS2(=O)=O [benzthiazide]
Outgoing: 0

Incoming: // returns reported phenotypically active for input N#Cc1c(C2CCNCC2)cc(-c2c(O)cccc2OCC2CC2)nc1N
Outgoing: 1

Incoming: // returns reported phenotypically active for input CCCCOc1cc(C(=O)OCCN(CC)CC)ccc1N [oxybuprocaine]
Outgoing: 0

Incoming: // returns reported phenotypically active for input COC(=O)[C@H]1[C@H]2C[C@H]3c4[nH]c5ccccc5c4CCN3C[C@@H]2CC[C@@H]1O [Corynanthine hydrochloride]
Outgoing: 0

Incoming: // returns reported phenotypically active for input O=C(/C=C/c1ccc(OCc2ccccc2)cc1)c1c(O)cc(OCc2ccccc2)cc1OCc1ccccc1 [4,2,4'-Tribenzyloxy-6'-hydroxychalcone]
Outgoing: 0

Incoming: // returns reported phenotypically active for input O=C(CCCCCCC(=O)Nc1ccccc1)NO
Outgoing: 1

Incoming: // returns reported phenotypically active for input CN1CCCC(n2nc(Cc3ccc(Cl)cc3)c3ccccc3c2=O)CC1 (stereo unspecified) [azelastine]
Outgoing: 1

Incoming: // returns reported phenotypically active for input CN(C)CC(=O)Nc1ccc2[nH]c(=O)c3ccccc3c2c1 [PJ 34 hydrochloride]
Outgoing: 1

Incoming: // returns reported phenotypically active for input COc1cc2c(cc1OCCCN1CCCC1)N=C(N)C21CCC1
Outgoing: 1

Incoming: // returns reported phenotypically active for input Nc1cccc(-c2cc3c(Oc4cccc(O)c4)ncnc3[nH]2)c1
Outgoing: 1

Incoming: // returns reported phenotypically active for input CC[N@@+]1(C)[C@@H]2CC[C@H]1C[C@@H](OC(=O)[C@]1(c3ccccc3)CC[C@H](C(=O)O[C@H]3C[C@H]4CC[C@@H](C3)[N@+]4(C)CC)c3ccccc31)C2 [beta- Belladonnine dichloroethylate]
Outgoing: 0

Incoming: // returns reported phenotypically active for input CC(C)(C)c1ccc2cc(C#N)c(C#N)cc2c1
Outgoing: 1

Incoming: // returns reported phenotypically active for input O=C(NCCO)c1cc(C(=O)NCCO)cc(C(=O)NCCO)c1
Outgoing: 0

Incoming: // returns reported phenotypically active for input CCn1c(=O)c2cc(C(N)=O)c(N)nc2n(C2CC2)c1=O
Outgoing: 0

Incoming: // returns reported phenotypically active for input NC1=NCC2c3ccccc3Cc3ccccc3N12 (stereo unspecified) [epinastine]
Outgoing: 0

Incoming: // returns reported phenotypically active for input O=C(Nc1ccccc1)c1cc([N+](=O)[O-])ccc1Cl
Outgoing: 1

Incoming: // returns reported phenotypically active for input C=C(C)[C@@H]1CC[C@]2(C(=O)O)CC[C@]3(C)[C@H](CC[C@@H]4[C@@]5(C)CC[C@H](O)C(C)(C)[C@@H]5CC[C@]43C)[C@@H]12 [betulinic-acid]
Outgoing: 0

Incoming: // returns reported phenotypically active for input C[C@H]1[C@H]2CC[C@H]3[C@@H]4CC=C5C[C@@H](N(C)C)CC[C@]5(C)[C@H]4CC[C@]23CN1C [Conessine]
Outgoing: 1

Incoming: // returns reported phenotypically active for input C[C@H](Cc1cc2c(c(C(N)=O)c1)N(CCCO)CC2)NCCOc1ccccc1OCC(F)(F)F [silodosin]
Outgoing: 0

Incoming: // returns reported phenotypically active for input CN(C)CCCN1c2ccccc2Sc2ccc(Cl)cc21 [chlorpromazine]
Outgoing: 1

Incoming: // returns reported phenotypically active for input CCOC(=O)c1ccc(N2NC(=O)/C(=C/c3ccc([N+](=O)[O-])o3)C2=O)cc1
Outgoing: 0
